Compiled literature IC50, tested on UniProt:P16109.
reportedEndpoint: IC50 (µM)

{"columns": ["molecule", "uom", "endpointValue"],
 "data": [
  ["O=C(Cc1cc(O)c(O)c(O)c1)NCC1CCC(C(=O)O)CC1 (stereo not drawn)", "µM", 2.8],
  ["O=C(O)Cc1cccc(-c2ccccc2NC(=O)Cc2cc(O)c(O)c(O)c2)c1", "µM", 4.2],
  ["O=C(O)Cc1ccc(-c2ccccc2NC(=O)Cc2cccc(-c3ccc(O)cc3O)c2)s1", "µM", 354],
  ["O=C(Nc1ccccc1-c1ccc(C(=O)O)s1)c1cccc(-c2ccc(O)cc2O)c1", "µM", 201],
  ["CCCCCCCC/C=C\\CCCCCCCCCCCCCC(=O)N[C@@H](CO[C@H]1O[C@H](COS(=O)(=O)O)[C@H](OS(=O)(=O)O)[C@H](O)[C@H]1O)[C@H](O)/C=C/CCCCCCCCCCCCC", "µM", 9],
  ["COc1ccc(-c2cccc(C(=O)Nc3ccccc3-c3ccc(C(=O)O)s3)c2)c(OC)c1", "µM", 67.8],
  ["COc1cc(CC(=O)Nc2ccc(-c3cc(C(=O)O)c(C)o3)cc2)cc(OC)c1", "µM", 133],
  ["O=C(O)Cc1ccc(-c2ccccc2NC(=O)CCc2cc(O)c(O)c(O)c2)s1", "µM", 2.4],
  ["O=C(/C=C/c1ccc(O)c(O)c1O)Nc1ccc(C(=O)O)cc1", "µM", 3.5],
  ["COC(=O)Cc1ccc(-c2ccccc2NC(=O)c2cccc(-c3ccc(O)cc3O)c2)s1", "µM", 50],
  ["O=C(O)Cc1ccc(-c2cccc(NC(=O)c3cccc(-c4ccc(O)cc4O)c3)c2)s1", "µM", 19.1],
  ["CCCCCCCCCCCCC/C=C/[C@@H](OC(=O)c1ccccc1)[C@H](CO[C@H]1O[C@H](COS(=O)(=O)O)[C@H](O)[C@H](O)[C@H]1OS(=O)(=O)O)NC(=O)CCCCCCCCCCCCCCC", "µM", 2.2],
  ["CCCCCCCCCCCCC/C=C/[C@@H](OC(=O)c1ccccc1)[C@H](CO[C@H]1O[C@H](COS(=O)(=O)O)[C@H](OS(=O)(=O)O)[C@H](OCc2ccccc2)[C@H]1OCc1ccccc1)NC(=O)CCCCCCCCCCCCCCC", "µM", 1.7],
  ["O=C(Cc1cc(O)c(O)c(O)c1)Nc1cccc(C(=O)O)c1", "µM", 1.1],
  ["Cc1ccc(C(=O)O)cc1NC(=O)CCc1cc(O)c(O)c(O)c1", "µM", 1.7]
]}

* * *

Compiled literature IC50, tested on P-selectin (Homo sapiens, UniProt P16109).

{"columns": ["lineNotation", "IC50"],
 "data": [
  ["CCCCCCCCCCCCC/C=C/[C@@H](OC(=O)c1ccccc1)[C@H](CO[C@H]1O[C@H](COS(=O)(=O)O)[C@@H](OS(=O)(=O)O)[C@H](OC(=O)c2ccccc2)[C@H]1OC(=O)c1ccccc1)NC(=O)CCCCCCCCCCCCCCC", "~0.4 µM"],
  ["O=C(Cc1cc(O)c(O)c(O)c1)NCc1ccc(C(=O)O)cc1", "14.8 µM"],
  ["O=C(O)Cc1ccc(-c2ccccc2NC(=O)Cc2ccc(O)c(O)c2O)s1", "7.6 µM"],
  ["O=C(O)Cc1ccc(-c2ccccc2NC(=O)c2cncc(-c3ccc(O)cc3O)c2)s1", "260 µM"],
  ["COc1cc(OC)cc(-c2cccc(C(=O)Nc3ccccc3-c3ccc(CC(=O)O)s3)c2)c1", "35.3 µM"],
  ["CCCCCCCCCCCCC/C=C/[C@@H](O)[C@H](CO[C@H]1O[C@H](COS(=O)(=O)O)[C@H](OS(=O)(=O)O)[C@H](O)[C@H]1O)NC(=O)CCCCCCCCCCCCCCC", "0.2 µM"]
]}
